Recorded measurements of T/C, one per entry
Test system: CD2F1 mice, L1210 leukemia ip, survival T/C
experimental.details: NCI In Vivo Anticancer Drug Screen. Data for tumor model L1210 Leukemia (intraperitoneal) in CD2F1 (CDF1) mice
assay.context: endpoint: mean survival time; dose: 100.0 mg/kg/injection; schedule: Q04DX003 (ip); vehicle: saline with Tween-80; higher = longer survival
Toxic doses and inconclusive results are not listed.

response.value for O=S(=O)(Oc1ccccc1)c1ccc(Cl)cc1 (field: T/C) = 98 % of control

The compound listed as O=C(COc1ccc(Br)cc1C(=O)O)Nc1ccccc1 shows T/C equal to 96 % of control

Measured T/C, CCCCC(OC(=O)Nc1cccc2ccccc12)C(C)C (centres undefined) : 91 % of control

For reference, reported T/C for O=C(CO)c1ccccc1 stands at 97 % of control

Per the records, this compound ( N#CC(C(=O)N1CCCC1)=C(S)S ) has T/C equal to 100 % of control

Lab book: T/C of O=S(=O)(OCCOC(c1ccccc1)(c1ccccc1)c1ccccc1)c1ccc(Br)cc1 noted as 94 % of control

Noted for O=Cc1c2ccc(Cl)cc2nc2ccc(Cl)cc12 : its T/C reads 101 % of control

###

Test system: CD2F1 mice, L1210 leukemia ip, survival T/C
experimental.details: NCI In Vivo Anticancer Drug Screen. Data for tumor model L1210 Leukemia (intraperitoneal) in CD2F1 (CDF1) mice
assay.context: endpoint: mean survival time; dose: 12.5 mg/kg/injection; schedule: Q01DX009 (ip); vehicle: saline with Tween-80; higher = longer survival
Toxic doses and inconclusive results are not listed.
measured.parameter: T/C

Example compounds with recorded T/C:
[[record]]
test_smiles = "C[n+]1c(/C=C/c2ccc([N+](=O)[O-])cc2)ccc2ccccc21"
measured_value = "102 % of control"

[[record]]
test_smiles = "c1cnc2c(c1)ccc1ncccc12"
measured_value = "91 % of control"

[[record]]
test_smiles = "CCOC(=O)c1ccc(NC(=O)Nc2cc(Cl)c(Cl)cc2C)cc1"
measured_value = "86 % of control"


Lab book: T/C of CCN(CC)CCOc1ccc(/C(=C(\Cl)c2ccccc2)c2ccccc2)cc1 noted as 105 % of control

Entry under test: CC[N+](C)(CC)CCCOC(=O)C(c1ccccc1)c1ccccc1 . Its T/C was 96 % of control

Lab note: measured T/C of [CH3][Sb]([CH3])([CH3])([O]C(=O)CBr)[O]C(=O)CBr was 102 % of control

Briefly, T/C measured for CC(C)(CBr)COC(=O)Nc1cccc2ccccc12 : 91 % of control

Note to self: T/C recorded for CCOC(=O)NN=C1CCCC1 was 88 % of control

Short answer for COc1cc(OC)c(OC)cc1/C=c1\[nH]c(=O)/c(=C/c2cc(OC)c(OC)cc2OC)[nH]c1=O : T/C was 91 % of control

T/C in this record for NCCSc1ccccc1 : 89 % of control

Summary for this compound, O=c1oc2ccccc2c(O)c1-c1cccc2ccccc12 : T/C is 91 % of control

// sample Cn1cnc([N+](=O)[O-])c1SCC(=O)O , its T/C was 95 % of control

Reported T/C ( O=S(=O)(Cc1ccc(CS(=O)(=O)c2ccc(Cl)cc2)cc1)c1ccc(Cl)cc1 ) = 91 % of control

###

Tested on: CD2F1 mice, L1210 leukemia ip, survival T/C
experimental.details: NCI In Vivo Anticancer Drug Screen. Data for tumor model L1210 Leukemia (intraperitoneal) in CD2F1 (CDF1) mice
assay.context: endpoint: mean survival time; dose: 400.0 mg/kg/injection; schedule: Q01DX001 (ip); vehicle: saline with Tween-80; higher = longer survival
Toxic doses and inconclusive results are not listed.
measured.parameter: T/C

[[record]]
compound = "O=c1[nH]nc(-c2cccc3ccccc23)o1"
measured_parameter = "T/C"
measured_value = "108 % of control"

[[record]]
compound = "CCOC(=O)CC1(C)C(=O)NC(=O)N1C(C)=O (stereo unspecified)"
measured_parameter = "T/C"
measured_value = "94 % of control"

[[record]]
compound = "COc1cc2c(cc1OC)C(CCN)NCC2 (stereo unspecified)"
measured_parameter = "T/C"
measured_value = "94 % of control"


Query COc1ccc2c(c1O)C1CCCCC13CCN(C)C3C2 (stereo unspecified) yields T/C of 100 % of control

# compound CC(C)C(NC(=O)c1cccnc1)C(=O)O (stereo unspecified) ; its T/C = 97 % of control

Noted for Cc1ccc(S(=O)(=O)N2C(=O)OC3(CCCCC3)C2C)cc1 (stereo unspecified) : its T/C reads 92 % of control

###

Test system: CD2F1 mice, L1210 leukemia ip, survival T/C
experimental.details: NCI In Vivo Anticancer Drug Screen. Data for tumor model L1210 Leukemia (intraperitoneal) in CD2F1 (CDF1) mice
assay.context: endpoint: mean survival time; dose: 50.0 mg/kg/injection; schedule: Q01DX009 (ip); vehicle: saline with Tween-80; higher = longer survival
Protocol: The antitumor activity of compounds was measured in mice bearing transplantable tumors. Survival or tumor size were measured and the results are expressed as the measurement made in the treated group (T) divided by the measurement made in the vehicle treated control group (C). The tumor model used in this assay is L1210 Leukemia (intraperitoneal) in CD2F1 (CDF1) mice
Toxic doses and inconclusive results are not listed.
measured.parameter: T/C

[[record]]
compound = "Nc1cc2nc3ccccc3sc-2cc1=O"
assay_target = "CD2F1 mice, L1210 leukemia ip, survival T/C"
measured_parameter = "T/C"
measured_value = "102 % of control"

[[record]]
compound = "CCN(CC)CCOc1ccc(/C(=C(\\Cl)c2ccccc2)c2ccccc2)cc1"
assay_target = "CD2F1 mice, L1210 leukemia ip, survival T/C"
measured_parameter = "T/C"
measured_value = "91 % of control"

[[record]]
compound = "Clc1[nH]nc2ccccc12"
assay_target = "CD2F1 mice, L1210 leukemia ip, survival T/C"
measured_parameter = "T/C"
measured_value = "89 % of control"

[[record]]
compound = "Cc1sc(Cc2ccccc2)nc1-c1ccc(N=Cc2ccc(N(CCOS(C)(=O)=O)CCOS(C)(=O)=O)cc2)cc1"
assay_target = "CD2F1 mice, L1210 leukemia ip, survival T/C"
measured_parameter = "T/C"
measured_value = "93 % of control"

[[record]]
compound = "O=C(CNC(=O)NCc1ccco1)N/N=C/c1cccc([N+](=O)[O-])c1"
assay_target = "CD2F1 mice, L1210 leukemia ip, survival T/C"
measured_parameter = "T/C"
measured_value = "92 % of control"


Shift focus to the following entry.
// T/C lookup, compound = CCCC(O)(CC)C1CCCC1C (centres undefined) , result: 100 % of control

###

Test system: CD2F1 mice, L1210 leukemia ip, survival T/C
experimental.details: NCI In Vivo Anticancer Drug Screen. Data for tumor model L1210 Leukemia (intraperitoneal) in CD2F1 (CDF1) mice
assay.context: endpoint: mean survival time; dose: 400.0 mg/kg/injection; schedule: Q04DX002 (ip); vehicle: saline with Tween-80; higher = longer survival
Inconclusive results and toxic doses are left out. Non-standard residues stand in square brackets, D forms with d. Residues, ends and D or L forms follow the SMILES beside them. *: point of attachment. Cbz = O=C(OCc1ccccc1)*; Dha = C=C(N)C(=O)O
measured.parameter: T/C

[[record]]
molecule = "COc1ccccc1NC(=O)Nc1cccc([N+](=O)[O-])c1OC"
measured_parameter = "T/C"
measured_value = "94 % of control"

[[record]]
molecule = "CC(C)(O)C#CC(C)(C)OC(O)C(Cl)(Cl)Cl (configuration not stated)"
measured_parameter = "T/C"
measured_value = "93 % of control"

[[record]]
molecule = "CCOc1ccc(/C=C2N=C(/C=C/c3ccccc3)OC\\2=O)cc1"
measured_parameter = "T/C"
measured_value = "91 % of control"


Value of T/C reported for the molecule c1ccc(CCCNc2nnnc3ccccc23)cc1 is 91 % of control

Sample C=C(NC(=O)CNC(=O)OCc1ccccc1)C(=O)O (Cbz-Gly-[Dha]-OH) ; T/C observed: 94 % of control

Record summary for Cc1ccc(C)c(OC(=O)Nc2cccc3ccccc23)c1 : reported T/C = 91 % of control

// sample CC(Nc1ccccc1)C(=O)N1CCC(Nc2ccccc2)CC1 (configuration not stated) , its T/C was 90 % of control

Item: Cc1cc(C)c(NC(=O)CC#N)cc1C | T/C: 105 % of control

###

Tested on: CD2F1 mice, L1210 leukemia ip, survival T/C
experimental.details: NCI In Vivo Anticancer Drug Screen. Data for tumor model L1210 Leukemia (intraperitoneal) in CD2F1 (CDF1) mice
assay.context: endpoint: mean survival time; dose: 100.0 mg/kg/injection; schedule: Q01DX001 (ip); vehicle: saline; higher = longer survival
Toxic doses and inconclusive results are not listed.
measured.parameter: T/C

Previously resolved entries follow.
[[record]]
compound = "CCOC(=O)c1cc(-c2ccccc2)nc2c(Cl)cc(Cl)cc12"
measured_value = "94 % of control"

[[record]]
compound = "COC(=O)c1cc(C)c(C)cc1NC1OC(CO)C(O)C1O (centres undefined)"
measured_value = "91 % of control"


Notebook: ON(C(=Nc1ccccc1)c1ccccc1Cl)c1ccccc1 , T/C read as 102 % of control

Noted for CN1CCN(CCCN2C(=O)C3CC=CCC3C2=O)CC1 (centres undefined) : its T/C reads 102 % of control
